study_target: GABA-A receptor; alpha-1/beta-2/gamma-2 (Homo sapiens, UniProt P14867+P18507+P47870)
Sequence (P14867 whole entry): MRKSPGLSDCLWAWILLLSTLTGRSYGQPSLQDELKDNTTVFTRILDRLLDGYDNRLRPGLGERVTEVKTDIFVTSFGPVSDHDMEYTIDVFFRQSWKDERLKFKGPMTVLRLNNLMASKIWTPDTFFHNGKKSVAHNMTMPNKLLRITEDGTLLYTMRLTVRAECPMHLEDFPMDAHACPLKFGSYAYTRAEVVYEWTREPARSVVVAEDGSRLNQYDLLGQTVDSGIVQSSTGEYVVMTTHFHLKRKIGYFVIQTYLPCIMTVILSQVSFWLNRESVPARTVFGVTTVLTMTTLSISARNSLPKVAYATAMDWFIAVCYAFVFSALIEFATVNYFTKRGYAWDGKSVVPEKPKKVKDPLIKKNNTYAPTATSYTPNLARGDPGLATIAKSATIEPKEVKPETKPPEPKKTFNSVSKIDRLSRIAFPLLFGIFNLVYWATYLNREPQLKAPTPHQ
Sequence (P47870 whole entry): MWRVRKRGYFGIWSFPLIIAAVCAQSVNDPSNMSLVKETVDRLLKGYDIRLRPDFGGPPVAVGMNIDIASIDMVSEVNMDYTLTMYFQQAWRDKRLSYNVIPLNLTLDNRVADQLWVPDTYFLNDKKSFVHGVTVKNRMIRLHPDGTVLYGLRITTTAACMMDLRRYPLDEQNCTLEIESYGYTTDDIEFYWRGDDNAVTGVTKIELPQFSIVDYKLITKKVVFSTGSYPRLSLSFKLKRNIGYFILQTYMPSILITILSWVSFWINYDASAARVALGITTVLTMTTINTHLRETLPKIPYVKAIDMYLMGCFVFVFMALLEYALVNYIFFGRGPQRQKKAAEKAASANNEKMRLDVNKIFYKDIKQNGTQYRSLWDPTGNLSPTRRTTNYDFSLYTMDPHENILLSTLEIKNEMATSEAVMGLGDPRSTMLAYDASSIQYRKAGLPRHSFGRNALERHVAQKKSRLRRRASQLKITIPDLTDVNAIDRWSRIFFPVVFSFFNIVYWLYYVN
Sequence (P18507 whole entry): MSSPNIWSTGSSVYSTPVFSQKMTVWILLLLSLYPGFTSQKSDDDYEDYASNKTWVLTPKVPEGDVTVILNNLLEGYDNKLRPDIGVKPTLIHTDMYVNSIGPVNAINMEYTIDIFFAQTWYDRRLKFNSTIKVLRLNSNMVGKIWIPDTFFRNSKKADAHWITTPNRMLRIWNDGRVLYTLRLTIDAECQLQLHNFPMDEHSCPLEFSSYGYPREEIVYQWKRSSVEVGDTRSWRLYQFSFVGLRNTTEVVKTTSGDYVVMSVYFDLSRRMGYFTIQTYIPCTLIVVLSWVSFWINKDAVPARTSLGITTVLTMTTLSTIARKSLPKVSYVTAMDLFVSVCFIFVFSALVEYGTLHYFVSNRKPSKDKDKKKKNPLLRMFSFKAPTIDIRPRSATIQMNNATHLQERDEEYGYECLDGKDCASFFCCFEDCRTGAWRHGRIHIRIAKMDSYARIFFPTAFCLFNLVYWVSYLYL
assay_explanation: Antagonist activity at human recombinant GABA A receptor alpha1beta2gamma2S expressed in HEK293 cells assessed as inhibition of GABA-induced current by patch clamp electrophysiology
Format: functional, cell-based
Provide the reported pIC50 of each item.
// scale note: pIC50 = -log10(conc_M); give the bare number

Reported pIC50 for COc1cccc(COc2ccc(-c3ccc(=N)n(CCCC(=O)O)n3)cc2)c1 : what is it? 8.15

Also check C#CCOc1ccc(-c2ccc(=N)n(CCCC(=O)O)n2)cc1 7.40

Try this molecule too: N=c1ccc(-c2ccc(OCc3cccc([N+](=O)[O-])c3)cc2)nn1CCCC(=O)O 8.52

Same read-out for COc1ccc(-c2ccc(=N)n(CCCC(=O)O)n2)cc1 ? 6.46

Please do the same for N=c1ccc(-c2ccc(OCc3ccccc3)cc2)nn1CCCC(=O)O as well. 7.96
